Measured GI50 values are reported for all entries that follow.
System: ACHN
Test: NCI tumour cell line growth inhibition, 48 h
The source made the active and inactive calls. Rule as the data show it: active = GI50 up to about 1.1 µM and inactive = higher.

Here is how some molecules turned out for GI50.
CC(C)(C)C(=O)C(CC(=O)c1ccccc1)C(=O)C(C)(C)C    > 100 µM (inactive)
CC(O)(CNS(=O)(=O)c1ccccc1)c1ccccc1 (stereo unspecified)    > 100 µM (inactive)
O=C1C=CC(=O)c2c1ccc1c3ccccc3n(Cc3ccccc3)c21    18.2 µM (inactive)
Cc1cccc2sc(NC(=O)NS(=O)(=O)n3cnc4ccccc43)nc12    32.8 µM (inactive)
N#C/C=c1/c2ccccc2n2nc3ccccc3c12    6.71 µM (inactive)

Pending molecule:
Prompt: Hello, please tell me recorded GI50 for this one: Sc1nnc(COc2ccc(Cl)cc2)[nH]1
Response: > 100 µM (inactive)
